# merged literature set: Ki with Cytochrome P450 3A4 (Homo sapiens, UniProt P08684)
Note to self: use y only for Ki readings below 6 µM; a reading exactly at 6 µM still gets n.

Problem: Is 6 µM strictly greater than the compound's reported Ki? compound: O=c1cc(-c2ccc(O)c(-c3c(O)cc(O)c4c(=O)cc(-c5ccc(O)cc5)oc34)c2)oc2cc(O)cc(O)c12
Result: y

Problem: Given the entry Cc1cnc(Nc2ccc(OCCN3CCCC3)cc2)nc1Nc1cccc(S(=O)(=O)NC(C)(C)C)c1 , would its reported Ki be below 6 µM?
Result: n

Problem: Does this compound meet the criterion Ki < 6 µM? COc1ccc(-c2cc(=O)c3c(O)cc(O)c(-c4cc(-c5cc(=O)c6c(O)cc(O)cc6o5)ccc4OC)c3o2)cc1
Result: y

API: the following record is the query input.
Problem: Below 6 µM on Ki? Entry COc1c(O)c(C)cc2c1C(=O)c1c(O)cccc1C2=O
Result: n
